// reported Dihydrobenzofuran or Indoline x-fold>potency biochemical per item
TARGET_DESC: His tagged PTPN2 (TC45) protein (Homo sapiens (Human), UniProt P17706)
Sequence (P17706 other isoform, or with tags, fused parts or gaps): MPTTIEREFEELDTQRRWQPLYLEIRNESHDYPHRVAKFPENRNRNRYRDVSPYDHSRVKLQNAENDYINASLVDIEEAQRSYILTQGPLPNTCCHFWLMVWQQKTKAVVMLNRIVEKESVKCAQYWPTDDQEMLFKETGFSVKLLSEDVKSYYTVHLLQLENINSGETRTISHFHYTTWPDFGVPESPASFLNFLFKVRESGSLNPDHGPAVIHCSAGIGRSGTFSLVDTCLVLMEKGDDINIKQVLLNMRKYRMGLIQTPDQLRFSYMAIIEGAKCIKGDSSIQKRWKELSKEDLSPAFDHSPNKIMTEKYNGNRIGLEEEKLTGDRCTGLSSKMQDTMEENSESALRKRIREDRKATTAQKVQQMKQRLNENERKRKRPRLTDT
ASSAY_TEXT: PTPN2 Mobility Shift Assay (MSA)
Format: biochemical
TEST_SETTINGS: x-fold versus corresponding chromane comparator, PTPN2 MSA
Enter the number alone.

Below, 5 molecules whose answers are already recorded.
{"MOLECULE": "O=C1CN(c2c(O)cc3c(c2F)C[C@H](CNCC2CCOCC2)N3)S(=O)(=O)N1", "READOUT_NUMBER": 0.8}
{"MOLECULE": "CC(C)CCNC[C@H]1Cc2c(cc(O)c(N3CC(=O)NS3(=O)=O)c2F)O1", "READOUT_NUMBER": 0.9}
{"MOLECULE": "O=C1CN(c2c(O)cc3c(c2F)C[C@H](CNCC2CCC(C(F)(F)F)CC2)O3)S(=O)(=O)N1 (stereo partly drawn)", "READOUT_NUMBER": 6.1}
{"MOLECULE": "O=C1CN(c2c(O)cc3c(c2F)C[C@H](CNCCCc2ccccc2)O3)S(=O)(=O)N1", "READOUT_NUMBER": 4.7}
{"MOLECULE": "O=C1CN(c2c(O)cc3c(c2F)C[C@H](CNCCCOCC(F)F)O3)S(=O)(=O)N1", "READOUT_NUMBER": 2.1}

GET /value?item= CC(C)(C)OC(=O)N1CCC(CNC[C@H]2Cc3c(cc(O)c(N4CC(=O)NS4(=O)=O)c3F)O2)CC1 &field=Dihydrobenzofuran or Indoline x-fold>potency biochemical returns 1.1

* * *

TARGET_DESC: His tagged PTPN2 (TC45) protein (Homo sapiens (Human), UniProt P17706)
ASSAY_TEXT: PTPN2 Mobility Shift Assay (MSA)
Assay type: biochemical
TEST_SETTINGS: Table 3, dihydrobenzofuran or indoline compound (X = O or NH)
IC50 values by entry
A number alone suffices; assume nM.

{"COMPOUND": "O=C1CN(c2c(O)cc3c(c2F)C[C@H](CNCCCc2ccccc2)O3)S(=O)(=O)N1", "TARGET_DESC": "His tagged PTPN2 (TC45) protein (Homo sapiens (Human), UniProt P17706)", "IC50 [nM]": 4.05}
{"COMPOUND": "O=C1CN(c2c(O)cc3c(c2F)C[C@H](CNCC2CC(c4ccccc4)C2)O3)S(=O)(=O)N1 (stereo partly drawn)", "TARGET_DESC": "His tagged PTPN2 (TC45) protein (Homo sapiens (Human), UniProt P17706)", "IC50 [nM]": 2.51}

IC50 for His tagged PTPN2 (TC45) protein (Homo sapiens (Human), UniProt P17706) with input CC1=C(CCNC[C@H]2Cc3c(cc(O)c(N4CC(=O)NS4(=O)=O)c3F)O2)C(C)(C)CCC1 equals 1.81

* * *

TARGET_DESC: UniProt:P17706
ASSAY_TEXT: PTPN2 Mobility Shift Assay (MSA)
Format: biochemical
TEST_SETTINGS: enzyme 0.5 nM, substrate 2 μM
pIC50: −log10 of the molar value.
The following molecules are listed with their measured pIC50 values.

{"MOLECULE": "O=C1CN(c2c(O)cc3c(c2F)C[C@H](CNCCC2CCOC2)O3)S(=O)(=O)N1 (stereo partly drawn)", "RESULT": "7.00 to 8.00"}

Just so you know, measured pIC50 for O=C1CN(c2c(O)cc3c(c2F)C[C@H](CNCC2CC(c4ccccc4)C2)O3)S(=O)(=O)N1 (stereo partly drawn) came out at > 8.00

Recorded pIC50 (molecule CCNC[C@H]1Cc2c(cc(O)c(N3CC(=O)NS3(=O)=O)c2F)O1 ): 7.00 to 8.00

Sure, the documented pIC50 for CCCN(CCC)C[C@H]1Cc2c(cc(O)c(N3CC(=O)NS3(=O)=O)c2F)O1 is 7.00 to 8.00

// O=C1CN(c2c(O)cc3c(c2F)C[C@H](CN(CC2CC2)CC2CC2)O3)S(=O)(=O)N1 : pIC50 value = 7.00 to 8.00
